assay: Selectivity ratio of IC50 for alpha1A/alpha2delta/beta1b P/Q-type calcium channel (unknown origin) to IC50 for rat brain […] N-type calcium channel
# Ratio IC50 >= 30 gives Fulfilled, anything below gives Not fulfilled

| compound | assigned_category |
| --- | --- |
| COc1ccc(C(c2ccc(C(F)(F)F)cc2)N2CCN(C(=O)CC(c3ccccc3)c3ccccc3)CC2)cc1 (stereo unspecified) | Fulfilled |
| CCOC(=O)C1CN(C(c2ccccc2)c2ccccc2)CCN1C(=O)CC(c1ccccc1)c1ccccc1 (stereo unspecified) | Fulfilled |
| O=C(CC(c1ccccc1)c1ccccc1)N1CCN(C(c2ccccc2)c2ccc(C(F)(F)F)cc2)CC1 (stereo unspecified) | Not fulfilled |
| O=C(CC(c1ccccc1)c1ccccc1)N1CCN(C(c2ccccc2)c2ccc(Cl)cc2)CC1 (stereo unspecified) | Not fulfilled |
| O=C(O)C1CN(C(c2ccccc2)c2ccccc2)CCN1C(=O)CC(c1ccccc1)c1ccccc1 (stereo unspecified) | Not fulfilled |
| CC(C)(C)c1cc(C(c2ccccc2)N2CCN(C(=O)CC(c3ccccc3)c3ccccc3)CC2)cc(C(C)(C)C)c1O (stereo unspecified) | Fulfilled |
